# measured_on: K2P2.1(TREK-1) (Mus musculus, UniProt P97438)
# Sequence (P97438 1-411 isoform P97438-2): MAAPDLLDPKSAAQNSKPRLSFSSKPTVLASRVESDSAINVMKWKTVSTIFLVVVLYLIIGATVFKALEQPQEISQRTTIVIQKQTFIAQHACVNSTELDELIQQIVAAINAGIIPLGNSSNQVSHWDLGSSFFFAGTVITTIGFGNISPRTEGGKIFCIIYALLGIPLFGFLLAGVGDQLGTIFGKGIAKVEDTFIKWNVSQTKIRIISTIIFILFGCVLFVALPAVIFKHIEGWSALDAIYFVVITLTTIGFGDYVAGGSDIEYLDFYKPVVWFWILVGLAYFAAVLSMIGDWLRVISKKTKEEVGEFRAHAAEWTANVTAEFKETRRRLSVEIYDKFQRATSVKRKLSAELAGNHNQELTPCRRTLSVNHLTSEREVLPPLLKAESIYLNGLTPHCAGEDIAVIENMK
# assay_name: TEVC of K2P2.1(TREK-1) in Xenopus oocytes
# Assay type: cell-based
# Parameters: expressed in transfected cells; host or cells: Xenopus laevis oocytes injected with mRNA made from pGEMHE/pMO
# assay_conditions: extracellular application, fold activation I/I0 at 0 mV
pEC50: −log10 of the molar value.
endpoint_label: pEC50

molecule	endpoint_label	test_result
c1ccc2c(c1)Nc1c(-c3nnn[nH]3)cccc1C21CCCCC1	pEC50	4.47

a. c1ccc(-c2nnn[nH]2)c(Nc2cccc3c2CCCC3)c1
b. NC(=O)c1ccccc1Nc1cccc2c1CCCC2 [BL-1249-amide]
Select one: a or b . Criterion: greater recorded pEC50. Field: selected label. Fill in the label of the entry you choose. a
